- Tested on: SR
- assayProcedure: NCI tumour cell line growth inhibition, 48 h
Active and inactive are the calls of the source. Cut-off read from the data, not from the text of the source: active = GI50 up to about 1.1 µM and inactive = higher.
propertyLabel: GI50

Q) Please report the recorded GI50 for Nc1ccc(-c2ncc3cc(-c4cccc(-c5cc6cnc(-c7ccc(N)cc7)nc6c6ccccc56)c4)c4ccccc4c3n2)cc1 .
A) > 100 µM (inactive)

Q) Reported GI50, compound CSc1[nH]nc(N)c1C(=O)Nc1ccccc1 : ____
A) > 100 µM (inactive)

Q) So what's the measured GI50 for this one? CC[C@@]1(O)C(=O)OCc2c1cc1n(c2=O)Cc2c-1nc1ccccc1c2Cl
A) < 0.01 µM (active)

Q) Would you mind telling me what GI50 value was observed for O=C(NC1=C(Cl)C(=O)c2ccccc2C1=O)C(=O)c1c(O)c2ccccc2oc1=O ?
A) 3.04 µM (inactive)

Q) For the compound COC(=O)CCCC(=O)/C(=N\Nc1ccc(Cl)cc1)Nc1c(Cl)cccc1Cl , what GI50 is on record?
A) 20.5 µM (inactive)

Q) What value of GI50 has been reported for the following compound? Cc1noc(/N=C2\C=C(O)C(=O)c3ccccc32)c1C
A) 18.7 µM (inactive)

Q) Quick check: GI50 of CCC1CCC2c3c([nH]c4ccc(C)cc34)C3C(=O)N(N(C)C)C(=O)C3C2C1 (stereo not given) ?
A) 3.17 µM (inactive)

Q) # GI50 lookup, item Cc1cn(C2CC(O)C(COC(=O)NCCC(F)(F)C(F)(F)C(F)(F)C(F)(F)F)O2)c(=O)[nH]c1=O (stereo not given)
A) > 100 µM (inactive)

Q) Need GI50 of C[N+]1(C)C[C@@H](O)C[C@@H]1C(=O)[O-] , thanks.
A) > 100 µM (inactive)

Q) Report GI50 for Cn1c(=O)sc2cc(C(=S)N3CCC(Cc4ccccc4)CC3)ccc21 please.
A) 17.7 µM (inactive)
